Molecular target: TYK2-JH2 (aa 575-869, in-house) protein (Homo sapiens, UniProt P29597)
Construct: TYK2-JH2 (aa 575-869, in-house) protein; made in house
Sequence (P29597 575-869): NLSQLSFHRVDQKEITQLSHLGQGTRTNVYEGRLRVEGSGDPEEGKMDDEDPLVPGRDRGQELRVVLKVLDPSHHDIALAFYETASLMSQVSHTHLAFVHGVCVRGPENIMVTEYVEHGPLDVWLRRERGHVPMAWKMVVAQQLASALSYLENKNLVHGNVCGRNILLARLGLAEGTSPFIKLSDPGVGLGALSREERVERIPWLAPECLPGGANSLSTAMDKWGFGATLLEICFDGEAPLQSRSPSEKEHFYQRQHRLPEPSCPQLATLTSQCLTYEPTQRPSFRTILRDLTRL
Test: TYK2-JH2 biochemical assay (HTRF probe displacement)
Type: binding
Conditions: Biochemical assay; read-out: TYK2-JH2 IC50
Field 'label' (enum: yes (1) / no (0)). Set to yes (1) when IC50 is strictly under 50 pM; else no (0).

Please review the entries below; each comes with its answer.
CC(=O)Nc1cc(Nc2cccc(S(C)(=O)=O)c2)c(-c2ccc(C(C)(C)O)cn2)cn1 ... yes (1)
CC(=O)Nc1cc(Nc2cc(OCC3CC3)cc(S(C)(=O)=O)c2)c(-c2ccc(C(C)(C)O)cn2)cn1 ... yes (1)
CCS(=O)(=O)c1cc(OC(C)C)cc(Nc2cc(NC(C)=O)ncc2-c2ccn(C)n2)n1 ... yes (1)
CC(=O)Nc1cc(Nc2cc(OC[C@@H](C)O)cc(S(C)(=O)=O)c2)c(-c2ccn(C)n2)cn1 ... yes (1)
CC(=O)Nc1cc(Nc2cncc(S(C)(=O)=O)n2)c(-c2ccc3c(n2)OC(C)(C)CO3)cn1 ... yes (1)
COCCOc1ccc(-c2cnc(NC(C)=O)cc2Nc2cccc(S(C)(=O)=O)n2)nc1 [Example D1] ... yes (1)
CO[C@H]1C[C@@H](c2cc(Nc3cc(NC(C)=O)ncc3-c3ccc4c(n3)OCC(C)(C)O4)nc(S(C)(=O)=O)c2)C1 ... yes (1)
COc1cc(S(C)(=O)=O)nc(Nc2cc(NC(C)=O)ncc2-c2ccc3c(n2)OCC(C)(C)O3)c1OC ... yes (1)
CC(=O)Nc1cc(Nc2cc(C3CCCOC3)cc(S(C)(=O)=O)n2)c(-c2ccc3c(n2)OCC(C)(C)O3)cn1 (stereo not drawn) ... yes (1)
CC(=O)Nc1cc(Nc2cc(OC(C)C)cc(S(C)(=O)=O)c2)c(-c2ccc(C(C)(C)O)cn2)cn1 ... yes (1)

## Input IC50 under 50 pM? Item: `CC(=O)Nc1cc(Nc2cc(OC(C)C)cc(S(C)(=O)=O)n2)c(-c2ccn(C)n2)cn1`
## Output yes (1)

## Input # check: IC50 < 50 pM for `CC(=O)Nc1cc(Nc2cc(OCC3CC3)cc(S(C)(=O)=O)c2)c(-c2ccc(C(F)(F)F)cn2)cn1`
## Output no (0)

## Input Just wondering, is IC50 of `CC(=O)Nc1cc(Nc2cccc(S(C)(=O)=O)c2)c(-c2cccnn2)cn1` below 50 pM?
## Output no (0)

## Input hey, is IC50 for COCC1CN(c2ccc(-c3cnc(NC(C)=O)cc3Nc3cc(OC(C)C)cc(S(C)(=O)=O)n3)nc2)CCO1 (stereo not drawn) lower than 50 pM or not?
## Output yes (1)

## Input Take the compound `CC(=O)Nc1cc(Nc2cccc(S(C)(=O)=O)n2)c(-c2cc(C)n(C)n2)cn1` and say whether its IC50 is less than 50 pM.
## Output no (0)
